molecular target: feline FcRn complex (FcRn-α subunit and β-microglobulin), biotin labeled (feline); experiment: SPR, pH 6
Recorded Kd values for a group of binders are listed next.
Numbers only here, please. The scale is µM.

Query :: Item under review: feline IgG1a T256K (antibody, part only; not given: Variable domains, not shown: another chain or arm of the molecule) constant: ASTTAPSVFPLAPSCGTTSGATVALACLVLGYFPEPVTVSWNSGALTSGVHTFPAVLQASGLYSLSSMVTVPSSRWLSDTFTCNVAHPPSNTKVDKTVRKTDHPPGPKPCDCPKCPPPEMLGGPSIFIFPPKPKDTLSISRKPEVTCLVVDLGPDDSDVQITWFVDNTQVYTAKTSPREEQFNSTYRVVSVLPILHQDWLKGKEFKCKVNSKSLPSPIERTISKAKGQPHEPQVYVLPPAQEELSRNKVSVTCLIKSFHPPDIAVEWEITGQPEPENNYRTTPPQLDSDGTYFVYSKLSVDRSHWQRGNTYTCSVSHEALHSHHTQKSLTQSPGK . Reported Kd?
Result :: 0.107

Further cases:
Query :: Item under review: feline IgG1a A378I (antibody, part only; not given: Variable domains, not shown: another chain or arm of the molecule) constant: ASTTAPSVFPLAPSCGTTSGATVALACLVLGYFPEPVTVSWNSGALTSGVHTFPAVLQASGLYSLSSMVTVPSSRWLSDTFTCNVAHPPSNTKVDKTVRKTDHPPGPKPCDCPKCPPPEMLGGPSIFIFPPKPKDTLSISRTPEVTCLVVDLGPDDSDVQITWFVDNTQVYTAKTSPREEQFNSTYRVVSVLPILHQDWLKGKEFKCKVNSKSLPSPIERTISKAKGQPHEPQVYVLPPAQEELSRNKVSVTCLIKSFHPPDIIVEWEITGQPEPENNYRTTPPQLDSDGTYFVYSKLSVDRSHWQRGNTYTCSVSHEALHSHHTQKSLTQSPGK . Reported Kd?
Result :: 0.0583
